Assay: chemical genetic growth profiling, strain panel (AID 1159580);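 note: tested at 20 µM; growth read once vehicle control cultures reached saturation at 30 °C; 1 = growth at the plate median or of vehicle wells; lower values mean less growth of the strain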
Conditions: S. cerevisiae deletion strains, growth OD, locus YML070W, strain DAK1, hits give low values
Out of some 5,500 compounds screened, about 2,000 (36%) were called active. About 18% were inconclusive and are not listed. Some of the results follow.
property-label: normalized growth
Reply with the value as a number alone.

Field: example entries. Status: answers known.
line-notation	normalized growth
N#C/C(=N/Nc1ccc(Cl)cc1)C(N)=S	0.183
N#C/C(=N/Nc1ccc(Cl)cc1)C(=O)C1CC1	0.735

Input line: # get_value(readout='normalized growth', item= CCCCCc1ccc(S(=O)(=O)Nc2ncc(C)cc2Br)cc1 )
Output line: 0.78

###

Assay: chemical genetic growth profiling, strain panel (AID 1159580);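 note: tested at 20 µM; growth read once vehicle control cultures reached saturation at 30 °C; 1 = growth at the plate median or of vehicle wells; lower values mean less growth of the strain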
Details: S. cerevisiae deletion strains, growth OD, locus YOR265W, strain rbl2, hits give low values
Hit rate of the full screen: of about 5,500 compounds, about 2,000 (36%) were called active. Another 18% or so got no clear call; they are omitted. The list shows a part of the results.
Quick list: normalized growth per entry.
Reply with the value as a number alone.

Field: example entries. Status: answers known.
line-notation	normalized growth
COc1cc(OC)c2c(=O)c(-c3ccc4c(c3)OCO4)coc2c1	0.99
C=C(C)c1cc2cc(C(C)=O)c(O)cc2o1	0.96
CCOc1ccc(Cc2nccc3cc(OCC)c(OCC)cc23)cc1OCC	0.993
COC(=O)C1=CO[C@@H](O[C@@H]2O[C@H](CO)[C@@H](O)[C@H](O)[C@H]2O)[C@@H]2[C@@H](C)[C@@H](O)C[C@H]12	0.999

Okay, now this molecule:
Input line: # get_value(readout='normalized growth', item= COc1ccc2c(=O)c(-c3cc4c(cc3OC)OCO4)coc2c1 )
Output line: 1.01

###

Quick list: normalized growth per entry.
Assay: chemical genetic growth profiling, strain panel (AID 1159580);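 note: tested at 20 µM; growth read once vehicle control cultures reached saturation at 30 °C; 1 = growth at the plate median or of vehicle wells; lower values mean less growth of the strain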
Conditions: S. cerevisiae deletion strains, growth OD, locus YDL035C, strain GPR1, hits give low values
The whole screen tested about 5,500 compounds, of which about 2,000 (36%) were called active. Roughly 18% stayed inconclusive and do not appear here. The list shows a part of the results.
Reply with the value as a number alone.

compound	property-label	reported-result
Cc1cccc(N(C)C(=S)Oc2ccc3ccccc3c2)c1	normalized growth	0.979

Input line: # get_value(readout='normalized growth', item= Cc1cc(C)nc(NS(=O)(=O)c2ccc(N)cc2)n1 )
Output line: 0.988

Input line: # get_value(readout='normalized growth', item= Cc1cc(O)c2c(c1O)C(=O)c1c(O)cc(C)c(O)c1C2=O )
Output line: 0.975

Input line: # get_value(readout='normalized growth', item= COC(=O)C[C@H]1C(C)(C)C(OC(C)=O)[C@]2(O)C=C3C4CC(=O)O[C@@H](c5ccoc5)[C@]4(C)CCC3[C@@]1(C)C2=O (stereo not given in full) )
Output line: 1

Input line: # get_value(readout='normalized growth', item= COc1ccc2[nH]cc(CCNC(C)=O)c2c1 )
Output line: 1.01

###

Assay: chemical genetic growth profiling, strain panel (AID 1159580);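 note: tested at 20 µM; growth read once vehicle control cultures reached saturation at 30 °C; 1 = growth at the plate median or of vehicle wells; lower values mean less growth of the strain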
Conditions: S. cerevisiae deletion strains, growth OD, locus YOR080W, strain dia2, hits give low values
Hit rate of the full screen: of about 5,500 compounds, about 2,000 (36%) were called active. Not shown: some 18% with an inconclusive outcome. The list shows a part of the results.
Quick list: normalized growth per entry.
Reply with the value as a number alone.

Field: example entries. Status: answers known.
molecule	reported-result
CC(C)CCCC(C)[C@H]1CCC2C3CC[C@H]4CC(=O)CC[C@]4(C)C3CC[C@@]21C (stereo not given in full)	0.976
CC(=O)Oc1ccc2c(c1)CCC1C2CC[C@@]2(C)C1CC[C@@H]2OC(C)=O (stereo not given in full)	1.02
N#Cc1ccc2c(c1)N(CCCN1CCC(O)CC1)c1ccccc1S2	0.987
CNC(=O)CSP(=S)(OC)OC	1.02
CCCCC(=O)O[C@H]1CCC2C3CCc4cc(O)ccc4C3CC[C@@]21C (stereo not given in full)	1.03
CCC(=O)O[C@H]1CCC2C3CCc4cc(O)ccc4C3CC[C@@]21C (stereo not given in full)	0.979

Input line: # get_value(readout='normalized growth', item= O=c1n(CCCN2CCN(c3cccc(Cl)c3)CC2)nc2ccccn12 )
Output line: 0.975

Input line: # get_value(readout='normalized growth', item= COc1cc(O)c(C(=O)O)c(O)c1 )
Output line: 1

Input line: # get_value(readout='normalized growth', item= CC(=O)O[C@H]1CC2CCC3C(CC[C@@]4(C)C3C[C@H]([N+]3(C)CCCCC3)[C@@H]4OC(C)=O)[C@@]2(C)C[C@@H]1[N+]1(C)CCCCC1 (stereo not given in full) )
Output line: 1.03

Input line: # get_value(readout='normalized growth', item= CC(=O)Oc1ccc2c(c1)CCC1C2CCC2(C)C1CC(OC(C)=O)C2OC(C)=O (stereo not given) )
Output line: 0.987
